test system: Klebsiella pneumoniae; details: Concentration 20 uM; ASSAY_TEST Inhibition of Bacterial Growth; detection method Absorption (OD600); MEDIA CAMHB; plate type 384well; NBS; CORNING #3640; time 18 hr
Description: Antibacterial activity against Klebsiella pneumoniae MDR ATCC 70063 (CO-ADD:GN_003); MIC in CAMBH media using NBS plates, by OD(600)
Entries with a potency or affinity are not part of this list.
Overview of recorded Inhibition for various compounds

| COMPOUND | TESTED_ON | Inhibition (%) |
| --- | --- | --- |
| CN1C=C/C(=C/[N+](=O)[O-])N(C)C1=O | Klebsiella pneumoniae | 0.88 |
| CCc1cccc2[nH]c3cc([N+](=O)[O-])ccc3c12 | Klebsiella pneumoniae | -4.47 |
| c1ccc2cc(OCCOCCOc3ccc4ccccc4c3)ccc2c1 | Klebsiella pneumoniae | 11.21 |
| O=C1c2cccc(Sc3ccccc3)c2C(=O)c2c(Sc3ccccc3)cccc21 | Klebsiella pneumoniae | 3.23 |
| O=C(NC(=S)Nc1cccc(O)c1)c1ccco1 | Klebsiella pneumoniae | -1.93 |
| CCSc1nc(C)c(C)c(O)n1 | Klebsiella pneumoniae | 6.61 |
| O=C(NCc1ccco1)Nc1cccc([N+](=O)[O-])c1 | Klebsiella pneumoniae | 10.94 |
| Cc1cnc2c(N)cc(C)c(C)c2c1 | Klebsiella pneumoniae | 9.31 |
| CC(C)=CCC/C(C)=C\C(N)=O | Klebsiella pneumoniae | -1.44 |
| O=[N+]([O-])c1ccc2[nH]c3nc4ccccc4nc3c2c1 | Klebsiella pneumoniae | -1.62 |
| O=C1NC(=O)N2CCSC2(Cc2ccccc2)N1 (centres undefined) | Klebsiella pneumoniae | 17.33 |
| CN(C)c1ccc(C(c2ccc(N(C)C)cc2)c2ccc([N+](=O)[O-])cc2)cc1 | Klebsiella pneumoniae | 17.42 |
| Cc1cc(=O)n2c3c(c4c(cc13)c(CN(C)C)cc(=O)n4C)OC2.Cl | Klebsiella pneumoniae | 7.61 |
| N#Cc1nnn(-c2ccc(Cl)cc2)c1N | Klebsiella pneumoniae | -5.78 |
| CCOC(=O)c1c(N=C(S)NC)sc2c1CCCC2 | Klebsiella pneumoniae | 1.7 |
| CSC(=N)NS(=O)(=O)c1ccc(NC(C)=O)cc1 | Klebsiella pneumoniae | 3.27 |
| Oc1ccc2c(ccc3[nH]cnc32)c1 | Klebsiella pneumoniae | 18.56 |
| COc1cc(C(O)c2nc3ccccc3s2)cc(OC)c1OC (centres undefined) | Klebsiella pneumoniae | 12.12 |
| O=C(Nc1csnn1)c1csnn1 | Klebsiella pneumoniae | -1.22 |
| O=S1(=O)CCN(Cc2ccccn2)CC1 | Klebsiella pneumoniae | 2.99 |
| Cc1cc(C)c2c(SC(C)C)nc(N)nc2n1 | Klebsiella pneumoniae | 4.23 |
| Oc1nc(S)ncc1Oc1ccc(Cl)cc1Cl | Klebsiella pneumoniae | 10.84 |
| Cc1ccc(C2C=CC(C#N)=CN2Cc2ccccc2)cc1 (centres undefined) | Klebsiella pneumoniae | 11.58 |
| O=C(Nc1ccc(Cl)cc1)c1cc2c(cc1O)[nH]c1ccccc12 | Klebsiella pneumoniae | 13.56 |
| CC12CCC(C(NC(=S)NN)C1=O)C2(C)C (centres undefined) | Klebsiella pneumoniae | 9.19 |
| C1CCC(NC2=NCCO2)CC1 | Klebsiella pneumoniae | 6.74 |
| NC(=O)Oc1cccc(OC(N)=O)c1 | Klebsiella pneumoniae | 5.21 |
| COCC(O)Cn1ccnc1[N+](=O)[O-] (centres undefined) | Klebsiella pneumoniae | 11.9 |
| CCC(C)N=C(S)Nc1ccccc1 (centres undefined) | Klebsiella pneumoniae | 5.07 |
| CCCCNc1nc(N)ncc1[N+](=O)[O-] | Klebsiella pneumoniae | 10.57 |
| CCOC(=O)c1cnn2c(SC)ncnc12 | Klebsiella pneumoniae | 12.61 |
| Cn1c(=O)c2c(nc(N3CCCCC3)n2C)n(C)c1=O | Klebsiella pneumoniae | 8.3 |
| O=C(Nc1cccc(Cl)c1)Nn1cnnc1 | Klebsiella pneumoniae | 6 |
| CC(C)CNC(=O)/C=C\C(=O)O | Klebsiella pneumoniae | 9.3 |
| O=C1OCC/C1=C\c1ccc(O)cc1 | Klebsiella pneumoniae | 11.2 |
| Cc1cc(NC(=O)c2ccccc2)nc(C)n1 | Klebsiella pneumoniae | 3.38 |
| Nc1c(Cl)ncnc1NCCO | Klebsiella pneumoniae | 8.13 |
| COc1ccc(Nc2cc(C)nc(N)n2)cc1 | Klebsiella pneumoniae | 2.7 |
| Cn1cnc2ncnn2c1=S | Klebsiella pneumoniae | -0.39 |

###

Listing of entries alongside the reported Inhibition.
test system: Cryptococcus neoformans; details: Concentration 20 uM; ASSAY_TEST Inhibition of Fungal Growth; detection method Resazurin; Absorption (OD600-OD570); plate type 384well; NBS; CORNING #3640
Description: Antifungal activity against Cryptococcus neoformans H99 ATCC 208821 (CO-ADD:FG_002); MIC in YNB media using NBS plates, by Resazurin OD(600-570)
Entries with a potency or affinity are not part of this list.
MEASURED_QUANTITY: Inhibition (%)

| COMPOUND | MEASURED_QUANTITY | VALUE_OBSERVED |
| --- | --- | --- |
| O=C1c2ccccc2C(=O)c2c1cccc2-n1nnc2ccccc21 | Inhibition | -17.13 |
| c1ccc(-n2ncc3cccnc32)cc1 | Inhibition | -9.65 |
| Cc1nc(S)nc(O)c1CCC1OCCO1 | Inhibition | -7.17 |
| Cn1ncc2c(Nc3ccccc3Cl)nc(Nc3ccccc3Cl)nc21 | Inhibition | -4.25 |
| Cc1cc(-n2cnc3c(O)ncnc32)ccc1N | Inhibition | -8.1 |
| Cc1ccc(CC#N)c(-c2c(CC#N)ccc(C)c2C)c1C | Inhibition | -13.71 |
| Cc1c(COC(=O)NC(C)C)c(COC(=O)NC(C)C)c2n1CS(=O)(=O)C2 | Inhibition | -8.35 |
| CCCCOC(=O)c1cccnc1 | Inhibition | -0.89 |
| COc1cc(NCc2ccccc2O)c2ncccc2c1 | Inhibition | -12.51 |
| CC(=O)Oc1c(C)c(OC(C)=O)c2c(c1C(C)=O)OC1CC(=O)C(C(C)=O)=C(O)C21C (stereo not given) | Inhibition | -8.61 |
| CC(=O)O.N=c1ccn2c(n1)OC1C(O)C(CO)OC12 (stereo not given) | Inhibition | -12.02 |
| FC(F)(F)c1cccc(-c2nc3nc(Cl)c(Cl)nc3[nH]2)c1 | Inhibition | 33.54 |
| CN(/N=N/c1[nH]cnc1C(=O)NN)C1CCCCC1 | Inhibition | -4.73 |
| NS(=O)(=O)c1cc2c(cc1Cl)NC(Cc1ccccc1)NS2(=O)=O (stereo not given) [BENZYLHYDROCHLOROTHIAZIDE] | Inhibition | -10.94 |
| Nc1nc(N)c(/N=N/c2ccc(S(N)(=O)=O)cc2)c(O)n1 | Inhibition | -15.08 |

###

tested on: Candida albicans; conditions: 20 µM
Description: Antifungal activity against Candida albicans ATCC 90028 (CO-ADD:FG_001); MIC in YNB media using NBS plates, by OD630
Results with a measured potency or affinity are listed apart.
MEASURED_QUANTITY: Inhibition (%)

| MOLECULE | UNIT_INFO | VALUE_OBSERVED |
| --- | --- | --- |
| OCc1cc(O)c(CO)nn1 | % | -0.36 |
| C(=C\c1ccc(/C=C/c2ccccc2)nn1)/c1ccccc1 | % | 0.82 |
| CCOC(=O)Cn1nc2oc(=O)c(CCN3CCN(c4ccccc4OC)CC3)c(C)c2c1C | % | 2.37 |
| Cc1ccc(NC(=O)N2CCCCC2)cc1NC(=O)N1CCCCC1 | % | 3.17 |
| COC(=O)C1=C(C(=O)OC)[C@@H]2CCC[C@H]1[C@H]1[C@@H]2N=NN1c1ccccc1 | % | 2.48 |
| CC1(C)N=C(N)N=C(N)N1c1ccc(OCCCOc2ccccc2)c(Cl)c1.CCS(=O)(=O)O | % | -0.44 |
| O=C1c2ccccc2C(=O)C1c1ccccn1 | % | 5.19 |
| CC1(C)CC(=O)C(CC(=O)c2ccccc2)=C(NNC(=N)N)C1 | % | 5.62 |
| NC(=O)c1ccc(Oc2ccc(C(N)=O)cc2)cc1 | % | -0.45 |
| O=C(Nc1ccc(O)c(C(=O)O)c1)Oc1ccccc1 | % | 5.9 |
| Nc1ccccc1Sc1cc(Cl)nnc1Cl | % | 6.84 |
| Cc1cc(C)c2c(SC(C)C)nc(N)nc2n1 | % | 0.54 |
| Oc1ccc(-c2nc3ccccc3s2)c(O)c1 | % | 13.4 |
| O=C1OC(CN(Cc2ccccc2)Cc2ccccc2)CN1/N=C/c1ccc([N+](=O)[O-])o1 (stereo not drawn) | % | 10.5 |
| O=C(COc1cc(Cl)c(Cl)cc1Cl)Nc1ccc([N+](=O)[O-])cc1Cl | % | 2.39 |
| COc1ccccc1C1OC2=Nc3cc([N+](=O)[O-])ccc3NC2=C1O (stereo not drawn) | % | 0.19 |
| CC1(C)CCCC2(C)C(OCCO)=CC(=O)C=C12 (stereo not drawn) | % | 2.7 |
| CC1(C)SC(C)(C)N(C=O)C1C(=O)O (stereo not drawn) | % | 1.14 |

###

The compounds listed here are annotated with their Inhibition.
tested on: Candida albicans; settings: 20 µM
Entries with a potency or affinity are not part of this list.

| COMPOUND | Inhibition (%) |
| --- | --- |
| NC(S)=Nc1cccc(Cl)c1 | 2.81 |
| Nc1ccc(S(=O)(=O)NCC2CCCCO2)cc1 (stereo not given) | 0.19 |
| Nc1ccccc1SC1CC(=O)N(c2ccccc2Cl)C1=O (stereo not given) | 15 |
| Nc1ccc2c(c1)N=[N+]([O-])c1cc(N)ccc1C2 | -4.33 |
| Nc1ccccc1C(=O)Nc1ccc(Cl)cc1Cl | 3.17 |
